Origin of measurements: patent US8969026B2

Please respond with reported Ion abundance ratio (K ± sM) pH 7.1 for every item in the list.
assay_explanation: pH-dependent biphasic extraction of a peptide mixture with inverse micelles of polymer 1 in toluene, MALDI-MS ion abundance ratio
Format: physicochemical
test_conditions: polymer 1 inverse micelles in toluene; aqueous pH 7.1; K = Iorg/Iaq; [M+H]+ signal, [M+K]+ for spinorphin and β-amyloid; at least 4 replicates
Source text: The net charge within the inverse micelle of 1 is negative, affording a selective extraction of positively-charged peptides. In a typical experiment, a toluene solution containing 1 was mixed with an aqueous solution containing a mixture of peptides. After vortexing this mixture, the organic layer was separated and analyzed using MALDI-MS. […]
No end group written: not given here.
Give bare numbers.

Past entries and their recorded results:
May I ask what Ion abundance ratio (K ± sM) pH 7.1 has been recorded for IARRHPYFL (listed as Homo sapiens) [Kinetensin, human peptide purchased from American Peptide Company] ?
882

May I ask what Ion abundance ratio (K ± sM) pH 7.1 has been recorded for EDVGSNKGAIIGLM (listed as Homo sapiens) [β-Amyloid, human peptide purchased from American Peptide Company] ?
0.4

May I ask what Ion abundance ratio (K ± sM) pH 7.1 has been recorded for SSEVAGEGDGDSMGHEDLY (listed as Homo sapiens) [Preproenkephalin, human peptide purchased from American Peptide Company] ?
0.4

May I ask what Ion abundance ratio (K ± sM) pH 7.1 has been recorded for LVVYPWT [Spinorphin, LVVYPWT] ?
2.0

Others:
May I ask what Ion abundance ratio (K ± sM) pH 7.1 has been recorded for S YSMEHFRWGKPV [ACTH Human] ?
422
